- measured-target: Dual specificity protein kinase CLK3 (Homo sapiens) (UniProt P49761)
- Sequence (P49761 whole entry, looked up): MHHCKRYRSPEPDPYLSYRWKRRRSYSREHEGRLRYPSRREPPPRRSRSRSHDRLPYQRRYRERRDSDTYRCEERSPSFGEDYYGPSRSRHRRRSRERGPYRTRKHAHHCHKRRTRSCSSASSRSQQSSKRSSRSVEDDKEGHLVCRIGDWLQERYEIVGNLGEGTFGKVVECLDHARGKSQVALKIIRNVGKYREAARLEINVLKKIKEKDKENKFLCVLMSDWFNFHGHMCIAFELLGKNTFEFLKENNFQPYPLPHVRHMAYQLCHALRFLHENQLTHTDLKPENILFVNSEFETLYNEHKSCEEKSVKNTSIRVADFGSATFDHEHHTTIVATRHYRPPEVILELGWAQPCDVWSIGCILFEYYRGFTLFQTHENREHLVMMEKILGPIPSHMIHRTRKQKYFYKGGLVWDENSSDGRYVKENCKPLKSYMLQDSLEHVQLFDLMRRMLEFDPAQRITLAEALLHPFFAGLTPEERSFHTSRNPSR
// map ΔTm to label using bucket 1 = under 0.4 °C, bucket 2 = from 0.4 °C up to 1 °C, bucket 3 = 1 °C and over

(Q) Given Cc1c2ccncc2c(C)c2c1[nH]c1ccccc12 [ELLIPTECINE] , name the class its ΔTm places it in.
(A) bucket 3

(Q) Given Nc1n[nH]c2nnc(-c3c(-c4ccccc4)nn4ccccc34)cc12 , name the class its ΔTm places it in.
(A) bucket 1

(Q) Given CN(c1cccnc1)c1cc2c(Nc3ccc(F)c(Cl)c3)c(C#N)cnc2cn1 , name the class its ΔTm places it in.
(A) bucket 3

(Q) Given COc1ccc(CNc2nc(N(CCO)CCO)nc3c2ncn3C(C)C)cc1 , name the class its ΔTm places it in.
(A) bucket 2

(Q) Given Brc1c(Br)c(Br)c2[nH]nnc2c1Br [TETRABROMOBENZOTRIAZOLE] , name the class its ΔTm places it in.
(A) bucket 3

(Q) Given O=c1cc(-c2ccc(O)cc2)oc2cc(O)cc(O)c12 , name the class its ΔTm places it in.
(A) bucket 3

(Q) Given Cn1cc(C2=C(c3cn(CCCN)c4ccccc34)C(=O)NC2=O)c2ccccc21 , name the class its ΔTm places it in.
(A) bucket 3

(Q) Given C#Cc1cccc(Nc2ncnc3cc(OCCOC)c(OCCOC)cc23)c1 , name the class its ΔTm places it in.
(A) bucket 2

(Q) Given O=C1NC(=O)c2c1c1c3ccccc3n3c1c1c2c2ccccc2n1C1CCC3O1 , name the class its ΔTm places it in.
(A) bucket 2

(Q) Given Cc1cc(Nc2nc(-c3ccccc3)nc3ccccc23)n[nH]1 , name the class its ΔTm places it in.
(A) bucket 3

(Q) Given Cc1nc(N)sc1-c1ccnc(Nc2cccc([N+](=O)[O-])c2)n1 , name the class its ΔTm places it in.
(A) bucket 3

(Q) Given CC(C)(C)n1nc(-c2cccc3ccccc23)c2c(N)ncnc21 , name the class its ΔTm places it in.
(A) bucket 1

(Q) Given N=C(N)NCCNS(=O)(=O)c1cccc2cnccc12 , name the class its ΔTm places it in.
(A) bucket 1

(Q) Given Oc1cc(O)cc(/C=C/c2ccc(O)c(O)c2)c1 [PICEATANNOL] , name the class its ΔTm places it in.
(A) bucket 2

(Q) Given CCOc1cc2ncnc(Nc3cccc(Br)c3)c2cc1OCC , name the class its ΔTm places it in.
(A) bucket 1

(Q) Given C[S+]([O-])c1ccc(CSc2nc(-c3ccc(F)cc3)c(-c3ccncc3)[nH]2)cc1 (centres undefined) , name the class its ΔTm places it in.
(A) bucket 1

(Q) Given Cn1cnc2c(NCc3ccccc3)nc(NCCO)nc21 [OLOMOUCINE] , name the class its ΔTm places it in.
(A) bucket 1
